Data provenance is patent US5955500A.

Recorded Mean arterial pressure values for a group of compounds are listed next.
System: canine heart
Details: 0.2 mg/kg i.v., 0 min, mean ± SE
Report as a plain number; the unit mmHg is understood.

Here is how some compounds turned out for Mean arterial pressure.
- COc1ccc(CCN(C)CCCC(C#N)(c2ccc(OC)c(OC)c2)C(C)C)cc1OC (racemic) [20/80S]: 84
- COc1ccc(CCN(C)CCCC(C#N)(c2ccc(OC)c(OC)c2)C(C)C)cc1OC (racemic) [90/10S]: 94
- COc1ccc(CCN(C)CCC[C@](C#N)(c2ccc(OC)c(OC)c2)C(C)C)cc1OC [R-verapamil, reference compound]: 90

Lookup: Find the recorded Mean arterial pressure belonging to COc1ccc(CCN(C)CCCC(C#N)(c2ccc(OC)c(OC)c2)C(C)C)cc1OC (racemic) [80/20S] and report it.
Found: 89
